B1: tRNA (parent)
chain: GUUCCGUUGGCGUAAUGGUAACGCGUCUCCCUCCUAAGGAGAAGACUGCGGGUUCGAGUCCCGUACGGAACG

variants of: B1; test: yeast fitness relative to wild type (ratio to wild type); higher = fitter; tRNA-Arg(CCU), competitive growth, 37 C, YPD
This sample holds only a part of the variants without activity.
In this section, each of the variants is paired with its reported yeast fitness.
API doc: respond with a numeric literal and nothing else, no unit.

# count of solved cases: 8
GUUCCGUUGGCGUAAUGGUAACACGUCUCCCUCCUAAGGAGAAGAUUGCGGGUUCGAGUCCCGUACGGAACG: 0.646
GUUCCGUUGGCGUAAUGGUAACGCGUCUCCGUCCUAACGAGAUGACUGCGGGUUCGAGUCCCGUACGGAACG: 0.538
GUUCCGUUGGCGUAAUGGUAACGCGUCUCCCUCCUAAGGAGAAGACUGCGGGUGCGAGUCCCGUACGGAUCG: 0.678
GUUCAGUUGGCGUAAUGGUAACGCGUCUUCCUCCUAAGGAGAAGCCUGCGGGUUCGAGUCCCGUACGGAACG: 0.546
GUUCAGUUGGCGUAAUGGUAACGCGUCUCCCUCCUAAGGAGAAGACUGCGGGUUCGAGUCCCGUACGGAGCG: 0.922
GUUCCGUUGGCAUAAUGGUAACGCGUCUCCCUCCUAAGGAGAAGACUGCGGGUUUGAGUCCCGUACGGAACG: 0.908
GUUCCGUUGGCGUAAUGGUAACGCGUUUCCCUCCUAAGGAGAAGACUGCGGGUUCGAAUCCCAUACGGAACG: 0.53
GUUCCGUUGGCGUAAUGGUAACGCGUCGCCCUCCUAAGGUGAAGACUGCGGGUUCGAGUCCCGUACGGAACG: 0.843

// yeast fitness lookup, key: GUUCCGUUGGCCUAAUGGUAACGCGUCUCCCUCCUAAGGAGAAGUCUGCGGGUUCGAGUCCCGUACGGAUCG 0.564

# get_value(readout='yeast fitness', item= GUUCCGUUGGCGUAAUGGUAACGCGUCUCCCUCCUAAGAAGAAGAAUGCGGGUUCGAGUGUCGUACGGAACG ) 0.512

What does the record list as yeast fitness for GUUCCGUUGGCGUAAUGGUAACGCGUCGCCCUCCUAAGGAGAAGACUGCGGGUUCGAGUCCCGAACGGAACG ? 0.65

Query: yeast fitness; subject: GUUCCGUUGGCGUAAUGGUAACGCGUCUCGCUCCUUAGGAGAAGACUGCGGGUUCGAGUCUCGUACGGAACG 0.504

Which yeast fitness is reported for this variant? GUUCCGUUGGCGUAAUGGUAACGCGUCUCCCUCCUAAGGAGGAGACUGCGGGUUCGAGUCCCGCACGGAACG 0.904

Which yeast fitness value belongs to GUUCUGUUGGCGUAAUGGUAACGCGUUUCCCUCUUAAGGAGAAAACUGCGGGUUCGAGUCCCGUACGGAACG ? 0.547

Find the recorded yeast fitness belonging to GUUCCGUUGGCGUAAUGGUAACGCGUCUCCCUCCUAAGGAGAAGACCGCGGGUUCGAGUCCCGUGCGGAACG and report it. 0.92
